MEASUREMENT_TARGET: HCV NS3/4A protease A156T mutant (Hepatitis C virus genotype 1b, UniProt P26663, A1182T)
ASSAY_NAME: HCV NS3/4A protease time-resolved fluorescence (TRF) assay, Ki against A156T mutant
Assay type: biochemical
STATED_CONDITIONS: NS3/4A gt-1b A156T mutant, enzyme 0.4 nM; K+ salt; read-out: IC50 [gt-1b A156T]
pIC50: −log10 of the molar value.
# pIC50 >= 10 gives fulfilled, anything below gives not fulfilled

* COc1ccc2nc(C)c3c(c2c1)C(F)(F)C[C@]1(C[C@H]2C(=O)N[C@]4(C(=O)NS(=O)(=O)C5(C)CC5)C[C@H]4/C=C\CCCCC[C@H](NC(=O)OCC(C)C)C(=O)N2C1)O3 [Example 266] | not fulfilled

Field: next compound
Has COc1ccc2nc(C)c3c(c2c1)CC[C@]1(C[C@H]2C(=O)N[C@]4(C(=O)NS(=O)(=O)C5(C)CC5)C[C@H]4/C=C\CCCCC[C@H](NC(=O)OC4CCC4)C(=O)N2C1)O3 [Example 199] a recorded pIC50 greater than or equal to 10?
fulfilled
